System: Danio rerio larvae (5 dpf)
assay method text: startle (activity period 16 minus period 15, 20-s interval sound) minus DMSO control (percentage points); higher = stronger startle response than DMSO larvae
test conditions: 10 µM; exposure time: 3 h pre-incubation + 3 h imaging
Counter-ions that a name gives are not always drawn.
property name: startle
Answer with a bare number; do not write a unit.

COc1cc2nc(N3CCN(C(=O)c4ccco4)CC3)nc(N)c2cc1OC [Prazosin hydrochloride]: 4.64
CN1CCN2c3ncccc3Cc3ccccc3C2C1 (configuration not stated): -6.05
Nc1nc2[nH]cc(CCc3ccc(C(=O)N[C@@H](CCC(=O)O)C(=O)O)cc3)c2c(=O)[nH]1: -5.08

Prompt line: Look up startle of CN1CCC[C@@H]1CCO[C@](C)(c1ccccc1)c1ccc(Cl)cc1 [Clemastine fumarate] and report it.
Response line: -7.64

Prompt line: Report startle, nothing else, for this compound: CCCCNc1cc(C(=O)O)cc(S(N)(=O)=O)c1Oc1ccccc1 [Bumetanide]
Response line: 3.28

Prompt line: Please report the measured startle for C[C@H](Cc1cc2c(c(C(N)=O)c1)N(CCCO)CC2)NCCOc1ccccc1OCC(F)(F)F
Response line: 2.61

Prompt line: Look up startle of NS(=O)(=O)Cc1noc2ccccc12 [Zonisamide] and report it.
Response line: 5.14

Prompt line: Dear colleague, please send me the reported startle for Cc1c(-c2ccc(O)cc2)n(Cc2ccc(OCCN3CCCCCC3)cc2)c2ccc(O)cc12 [Bazedoxifene acetate] when you can.
Response line: -3.07

Prompt line: Output startle of O=C(Nc1c(Cl)cncc1Cl)c1ccc(OC(F)F)c(OCC2CC2)c1
Response line: 3.93

Prompt line: Provide measured startle value, entry: CS(=O)(=O)CCNCc1ccc(-c2ccc3ncnc(Nc4ccc(OCc5cccc(F)c5)c(Cl)c4)c3c2)o1
Response line: -0.148

Prompt line: // Input: O=c1[nH]c(=O)n([C@H]2C[C@H](O)[C@@H](CO)O2)cc1C(F)(F)F . Output its startle only.
Response line: 1.59

Prompt line: Note down startle recorded for OCCOCCN1CCN(C2=Nc3ccccc3Sc3ccccc32)CC1 [Quetiapine hemifumarate]
Response line: -0.888

Prompt line: Indicate its recorded startle; the compound in question is COC(=O)C1=C(C)NC(C)=C(C(=O)OC(C)C)C1c1cccc2nonc12 (configuration not stated)
Response line: -8.8

Prompt line: Give recorded startle. CN1CC2c3ccccc3Oc3ccc(Cl)cc3C2C1 (configuration not stated) [Asenapine maleate]
Response line: -6.16

Prompt line: Give reported startle value for CCCCCCCCc1ccc(CCC(N)(CO)CO)cc1
Response line: -6.92

Prompt line: Specify reported startle for the compound shown: CN(C)CCC[C@@]1(c2ccc(F)cc2)OCc2cc(C#N)ccc21 [Escitalopram oxalate]
Response line: -7.28

Prompt line: Specify reported startle for the compound shown: C[C@]12CCC(=O)C=C1CC[C@@H]1[C@@H]2[C@@H](O)C[C@@]2(C)[C@H]1CC[C@]2(O)C(=O)CO [Hydrocortisone]
Response line: 0.463

====

Recorded startle values for a group of compounds are listed next.
System: Danio rerio larvae (5 dpf)
assay method text: startle (activity period 16 minus period 15, 20-s interval sound) minus DMSO control (percentage points); higher = stronger startle response than DMSO larvae
test conditions: 10 µM; exposure time: 3 h pre-incubation + 3 h imaging
Counter-ions that a name gives are not always drawn.
# print the numeric value only

COc1ccccc1OCC(O)CN1CCN(CC(=O)Nc2c(C)cccc2C)CC1 (stereo unspecified) [Ranolazine dihydrochloride]: 2.16
COc1cc2nccc(Oc3ccc(NC(=O)C4(C(=O)Nc5ccc(F)cc5)CC4)cc3)c2cc1OC: -3.85
C[C@@H]1C[C@H]2[C@@H]3CCC4=CC(=O)C=C[C@]4(C)[C@@]3(F)[C@@H](O)C[C@]2(C)[C@@]1(O)C(=O)CO [Dexamethasone]: -0.0968
CC(C)(C(=O)O)c1ccc(C(O)CCCN2CCC(C(O)(c3ccccc3)c3ccccc3)CC2)cc1 (stereo unspecified) [Fexofenadine hydrochloride]: 3.14
O=c1n(CCCN2CCN(c3cccc(Cl)c3)CC2)nc2ccccn12 [Trazodone hydrochloride]: 3.18

Prompt line: For the compound C#CCN[C@@H]1CCc2ccccc21 [Rasagiline mesylate] , report startle.
Response line: 3.19

Prompt line: Provide only the value of recorded startle for COCCc1ccc(OCC(O)CNC(C)C)cc1 (stereo unspecified) [Metoprolol tartrate]
Response line: 4.47
